# Test system: A549 lung cell carcinoma
# TEST PROTOCOL: Relative colony forming efficiency after antisense treatment (Table 13)
# Assay type: cell-based, human
# DETAILS: 0.2 μM antisense oligodeoxyribonucleotide phosphorothioate; A549 cells; averages of 2-8 determinations
Strand notation (5' to 3'): a small letter for the sugar, then the base; units joined by * are phosphorothioate-linked, units joined directly phosphodiester-linked; [ ] holds rarer units or linkages, { } end groups; capitals alone tell only the bases. d = 2'-deoxy (DNA)
REPORTED PROPERTY: Reduced relative colony forming efficiency, expressed as % inhibition, A549 (%)
Enter your answer as a number in %; do not include the unit.

| BIOPOLYMER SEQUENCE | OBS VALUE |
| --- | --- |
| GCACGGGCGACC (antisense dG*dC*dA*dC*dG*dG*dG*dC*dG*dA*dC*dC) [AS-II-127-12] | 69.33 |
| CCCCTTCAGCGGCG (dC*dC*dC*dC*dT*dT*dC*dA*dG*dC*dG*dG*dC*dG) [AS-II-253-14] | 61.62 |
| GGTTTTCTCTCAGCAGCGGC (dG*dG*dT*dT*dT*dT*dC*dT*dC*dT*dC*dA*dG*dC*dA*dG*dC*dG*dG*dC; antisense) [AS-II-404-20] | 52.17 |
| TTAGAAGTCAGCATCCAAGG (DNA, all phosphorothioate, methylation of C not given here) [AS-II-1345-20] | 73.1 |
| AGCTGCTGCGGGTCCGTGAT (dA*dG*dC*dT*dG*dC*dT*dG*dC*dG*dG*dG*dT*dC*dC*dG*dT*dG*dA*dT; antisense) [AS-II-225-20] | 92.9 |

# evaluate next
Ask: Please list Reduced relative colony forming efficiency, expressed as % inhibition, A549 recorded for the sequence ACTGCCATTGTCACTGCTAT (DNA, all phosphorothioate, methylation of C not given here) [AS-II-1581-20]
Result: 90.55

###

Listed here: items and their measured Reduced relative colony forming efficiency, expressed as % inhibition, MDA-MB-231.
# System: MDA-MB-231 breast cell adenocarcinoma
# TEST PROTOCOL: Relative colony forming efficiency after antisense treatment (Table 13, FIG. 11, FIG. 12)
# Type: cell-based, human
# DETAILS: 0.2 μM antisense oligodeoxyribonucleotide phosphorothioate; MDA-MB-231 cells; averages of 2-8 determinations
Strand notation (5' to 3'): a small letter for the sugar, then the base; units joined by * are phosphorothioate-linked, units joined directly phosphodiester-linked; [ ] holds rarer units or linkages, { } end groups; capitals alone tell only the bases. d = 2'-deoxy (DNA)

Field: example entries. Status: answers known.
| BIOPOLYMER SEQUENCE | TARGET OR TEST SYSTEM | OBS VALUE |
| --- | --- | --- |
| CCTCCTCGGCGGTCCAAAAG (dC*dC*dT*dC*dC*dT*dC*dG*dG*dC*dG*dG*dT*dC*dC*dA*dA*dA*dA*dG; antisense) [AS-II-494-20] | MDA-MB-231 breast cell adenocarcinoma | 54.78% |
| TTTTAACTGGCTGTGCTGGT (DNA, all phosphorothioate, methylation of C not given here) [AS-II-1666-20] | MDA-MB-231 breast cell adenocarcinoma | 26.71% |
| CAGAATATCGACGCAAAAGA (antisense; DNA, all phosphorothioate, methylation of C not given here) [AS-II-909-20] | MDA-MB-231 breast cell adenocarcinoma | 45.96% |
| CGCGCTCCCGGCCC (dC*dG*dC*dG*dC*dT*dC*dC*dC*dG*dG*dC*dC*dC) [AS-II-79-14] | MDA-MB-231 breast cell adenocarcinoma | 48.6% |
| GGCTAAATCGCTCCACCAAG (dG*dG*dC*dT*dA*dA*dA*dT*dC*dG*dC*dT*dC*dC*dA*dC*dC*dA*dA*dG) [AS-II-626-20] | MDA-MB-231 breast cell adenocarcinoma | 90.21% |

// moving on: another record for Reduced relative colony forming efficiency, expressed as % inhibition, MDA-MB-231
Ask: Return Reduced relative colony forming efficiency, expressed as % inhibition, MDA-MB-231 (reported value) for this sequence: TCGCCTACTCTCTTCTCAAA (DNA, all phosphorothioate, methylation of C not given here) [AS-II-1278-20]
Result: 90.68%

###

# Test system: HCT116 colon cell carcinoma
# TEST PROTOCOL: Relative colony forming efficiency after antisense treatment (Table 13)
# Format: cell-based, human
# DETAILS: 0.2 μM antisense oligodeoxyribonucleotide phosphorothioate; HCT116 cells; averages of 2-8 determinations
Strand notation (5' to 3'): a small letter for the sugar, then the base; units joined by * are phosphorothioate-linked, units joined directly phosphodiester-linked; [ ] holds rarer units or linkages, { } end groups; capitals alone tell only the bases. d = 2'-deoxy (DNA)
Reduced relative colony forming efficiency, expressed as % inhibition, HCT116 overview
State just the number; it will be interpreted in %.

| SUBSTANCE | TARGET OR TEST SYSTEM | UNIT OF MEASUREMENT | OBS VALUE |
| --- | --- | --- | --- |
| ATGGTACTCGATGGGGAAGA (dA*dT*dG*dG*dT*dA*dC*dT*dC*dG*dA*dT*dG*dG*dG*dG*dA*dA*dG*dA) [AS-II-439-20] | HCT116 colon cell carcinoma | % | 64.7 |

# input for lookup
Ask: Report value: Reduced relative colony forming efficiency, expressed as % inhibition, HCT116, system: HCT116 colon cell carcinoma, substance: TCCTCGGCGGTCCAAA (dT*dC*dC*dT*dC*dG*dG*dC*dG*dG*dT*dC*dC*dA*dA*dA) [AS-II-496-16]
Result: 70.85

###

# Test system: A549 lung cell carcinoma
# TEST PROTOCOL: Relative colony forming efficiency after antisense treatment (Table 13)
# Assay type: cell-based, human
# DETAILS: 0.2 μM antisense oligodeoxyribonucleotide phosphorothioate; A549 cells; averages of 2-8 determinations
Strand notation (5' to 3'): a small letter for the sugar, then the base; units joined by * are phosphorothioate-linked, units joined directly phosphodiester-linked; [ ] holds rarer units or linkages, { } end groups; capitals alone tell only the bases. d = 2'-deoxy (DNA)
Label met when Reduced relative colony forming efficiency, expressed as % inhibition, A549 >= 90%; otherwise not met.

Examples from the recorded data:
| SUBSTANCE | ASSIGNED CATEGORY |
| --- | --- |
| GACACAAGGCATCGTTTCAA (antisense; DNA, all phosphorothioate, methylation of C not given here) [AS-II-784-20] | not met |
| CACACAACCTACTTACACCA (antisense; DNA, all phosphorothioate, methylation of C not given here) [AS-II-2372-20] | met |
| AAAAATCAGCCAAGTAAGGG (DNA, all phosphorothioate, methylation of C not given here) [AS-II-1381-20] | not met |
| CGCGCTCCCGGCCC (dC*dG*dC*dG*dC*dT*dC*dC*dC*dG*dG*dC*dC*dC) [AS-II-79-14] | not met |
| GAAGTCAGCATCCAAGGTAA (DNA, all phosphorothioate, methylation of C not given here) [AS-II-1342-20] | not met |
| GCAAAGAAAGCCAGAACATG (dG*dC*dA*dA*dA*dG*dA*dA*dA*dG*dC*dC*dA*dG*dA*dA*dC*dA*dT*dG; antisense) [AS-II-579-20] | met |
| GsCCsTCCGsACCsCTTCsCCsATTsG (antisense dG*dCdC*dTdCdCdG*dAdCdC*dCdTdTdC*dCdC*dAdTdT*dG) [AS-II-13-20] | not met |
| TCGCTCCACCAAGTTTTCAT (dT*dC*dG*dC*dT*dC*dC*dA*dC*dC*dA*dA*dG*dT*dT*dT*dT*dC*dA*dT; antisense) [AS-II-619-20] | not met |

Ask: Please tell me: is the substance GGCATCAGTCCTCGTTTCTT (antisense; DNA, all phosphorothioate, methylation of C not given here) [AS-II-933-20] at or over 90% in terms of Reduced relative colony forming efficiency, expressed as % inhibition, A549?
Result: not met

Ask: Given the entry GCCACAGGATAAAAACACAA (antisense; DNA, all phosphorothioate, methylation of C not given here) [AS-II-2009-20] , answer whether its Reduced relative colony forming efficiency, expressed as % inhibition, A549 meets or surpasses 90%.
Result: met

###

# System: PC-3 prostrate cell adenocarcinoma
# TEST PROTOCOL: Relative colony forming efficiency after antisense treatment (Table 13)
# Type: cell-based, human
# DETAILS: 0.2 μM antisense oligodeoxyribonucleotide phosphorothioate; PC-3 cells; averages of 2-8 determinations
Strand notation (5' to 3'): a small letter for the sugar, then the base; units joined by * are phosphorothioate-linked, units joined directly phosphodiester-linked; [ ] holds rarer units or linkages, { } end groups; capitals alone tell only the bases. d = 2'-deoxy (DNA)
REPORTED PROPERTY: Reduced relative colony forming efficiency, expressed as % inhibition, PC-3
Kindly format the answer as number then unit.

Some sequences with known Reduced relative colony forming efficiency, expressed as % inhibition, PC-3 results, for comparison:
| BIOPOLYMER SEQUENCE | OBS VALUE |
| --- | --- |
| AGCTGCTGCGGGTCCGTGAT (dA*dG*dC*dT*dG*dC*dT*dG*dC*dG*dG*dG*dT*dC*dC*dG*dT*dG*dA*dT; antisense) [AS-II-225-20] | 80.06% |
| GAGCAGCCAGGACAGGACGG (antisense dG*dA*dG*dC*dA*dG*dC*dC*dA*dG*dG*dA*dC*dA*dG*dG*dA*dC*dG*dG) [AS-II-151-20] | 85.68% |

Please turn your attention to the following entry.
Ask: Fill in Reduced relative colony forming efficiency, expressed as % inhibition, PC-3 for record TCAGAGGGGGCAGAGAATCC (antisense; DNA, all phosphorothioate, methylation of C not given here) [AS-II-2044-20]
Result: 74.48%

The values you see were collected from patent US7405205B2.
